// data source = patent US20160257710A1

- assay_target: Proteinase 3 (Homo sapiens, UniProt P24158)
- Sequence (P24158 28-248): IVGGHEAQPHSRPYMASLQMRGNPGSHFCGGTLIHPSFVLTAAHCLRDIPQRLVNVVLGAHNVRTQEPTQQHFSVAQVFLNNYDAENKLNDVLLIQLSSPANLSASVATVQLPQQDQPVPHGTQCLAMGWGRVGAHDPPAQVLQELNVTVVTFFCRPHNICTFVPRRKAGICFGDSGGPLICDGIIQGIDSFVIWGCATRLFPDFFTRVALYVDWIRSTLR
- protocol_summary: Protease inhibition assay, second order rate constant kobs/[I] (method of Tian and Tsou)
- Type: biochemical
Where no end group is shown, it is not given here. [ ]: non-standard residue; d: D form. AlaP = not defined here

substance	Proteinase 3 kobs/[I]
Ac-Ile-Pro-Tyr-Asp-Ala^P(O—C6H4-4-Cl)2 (Ac-IPYD[AlaP]; not fully specified (C-terminus); printed as Ac-Ile-Pro-Tyr-Asp-Ala^{P}(O—C₆H₄-4-Cl)₂; reading uncertain; also: C-terminal Ala as phosphonate analogue (Ala^P)) [Compound 12]	46 ± 0.1 M⁻¹ s⁻¹
Ac-Pro-Tyr-Phe-Ala^P(O—C6H4-4-Cl)2 (Ac-PYF[AlaP]; not fully specified (C-terminus); printed as Ac-Pro-Tyr-Phe-Ala^{P}(O—C₆H₄-4-Cl)₂; reading uncertain; also: C-terminal Ala as phosphonate analogue (Ala^P)) [Compound 7]	2.1 ± 0.2 M⁻¹ s⁻¹
Biotin-Asp-Tyr-Asp-Ala^P(O—C6H4-4-Cl)2 [Compound 3]	18 ± 2.8 M⁻¹ s⁻¹
Biotin-Pro-Tyr-Asp-Avl^P(O—C6H4-4-Cl)2 [Compound 5]	33360 ± 4150 M⁻¹ s⁻¹
Biotin-PEG3000-Pro-Tyr-Asp-Ala^P(O—C6H4-4-Cl)2 [Compound 13]	1163 ± 0.1 M⁻¹ s⁻¹

---

- assay_target: Elastase (Homo sapiens)
- Sequence (P08246 30-267): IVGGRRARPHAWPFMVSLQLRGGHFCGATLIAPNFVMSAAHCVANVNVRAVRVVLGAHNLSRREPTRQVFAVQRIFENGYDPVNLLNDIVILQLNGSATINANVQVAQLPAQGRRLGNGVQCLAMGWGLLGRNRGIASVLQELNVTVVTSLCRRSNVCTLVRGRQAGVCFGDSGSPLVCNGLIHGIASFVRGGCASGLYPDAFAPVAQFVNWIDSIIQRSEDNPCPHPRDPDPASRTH
- protocol_summary: Protease inhibition assay, second order rate constant kobs/[I] (method of Tian and Tsou)
- Type: biochemical
- run_parameters: n.s where no significant inhibition
- Description: The inactivation of proteases by substrate analog inhibitors in the presence of the substrate by competition for the enzyme-binding site, was measured by the method of Tian and Tsou (17). In this system, product formation in the presence of an irreversible inhibitor approaches an asymptote, as described by log([P∞]−[P])=log [P∞]−0.43A[Y]t […]
Where no end group is shown, it is not given here. [ ]: non-standard residue; d: D form. AlaP = not defined here; Ahx = NCCCCCC(=O)O
measure: Elastase kobs/[I]

substance	assay_target	measure	val
Ac-Asp-Tyr-Asp-Ala^P(O—C6H4-4-Cl)2 (Ac-DYD[AlaP]; not fully specified (C-terminus); printed as Ac-Asp-Tyr-Asp-Ala^P(O—C6H4-4-Cl)2; reading uncertain; also: C-terminal Ala as phosphonate analogue (Ala^P)) [Compound 1]	Elastase (Homo sapiens)	Elastase kobs/[I]	n.s
Ac-Ahx-Pro-Tyr-Asp-Ala^P(O—C6H4-4-Cl)2 ({Ac-Ahx}-PYD[AlaP]; not fully specified (C-terminus); printed as Ac-Ahx-Pro-Tyr-Asp-Ala^P(O—C6H4-4-Cl)2; reading uncertain; also: C-terminal Ala as phosphonate analogue (Ala^P)) [Compound 9]	Elastase (Homo sapiens)	Elastase kobs/[I]	n.s
Ac-Trp-Pro-Tyr-Asp-Ala^P(O—C6H4-4-Cl)2 (Ac-WPYD[AlaP]; not fully specified (C-terminus); printed as Ac-Trp-Pro-Tyr-Asp-Ala^{P}(O—C₆H₄-4-Cl)₂; reading uncertain; also: C-terminal Ala as phosphonate analogue (Ala^P)) [Compound 11]	Elastase (Homo sapiens)	Elastase kobs/[I]	n.s
Biotin-Pro-Tyr-Asp-Avl^P(O—C6H4-4-Cl)2 [Compound 5]	Elastase (Homo sapiens)	Elastase kobs/[I]	n.s
Biotin-Asp-Tyr-Asp-Ala^P(O—C6H4-4-Cl)2 [Compound 3]	Elastase (Homo sapiens)	Elastase kobs/[I]	n.s
Biotin-Pro-Tyr-Asp-Ala^P(O—C6H4-4-Cl)2 [Compound 4]	Elastase (Homo sapiens)	Elastase kobs/[I]	n.s
^+H2N-Pro-Tyr-Asp-Ala^P(O—C6H4-4-Cl)2 (H-PYD[AlaP]; not fully specified (C-terminus); printed as ^+H2N-Pro-Tyr-Asp-Ala^P(O—C6H4-4-Cl)2; reading uncertain; also: C-terminal Ala as phosphonate analogue (Ala^P)) [Compound 10]	Elastase (Homo sapiens)	Elastase kobs/[I]	n.s
Biotin-Val-Tyr-Asp-Ala^P(O—C6H4-4-Cl)2 [Compound 6]	Elastase (Homo sapiens)	Elastase kobs/[I]	n.s
Ac-Ile-Pro-Tyr-Asp-Ala^P(O—C6H4-4-Cl)2 (Ac-IPYD[AlaP]; not fully specified (C-terminus); printed as Ac-Ile-Pro-Tyr-Asp-Ala^{P}(O—C₆H₄-4-Cl)₂; reading uncertain; also: C-terminal Ala as phosphonate analogue (Ala^P)) [Compound 12]	Elastase (Homo sapiens)	Elastase kobs/[I]	15.1 ± 1.6 M⁻¹ s⁻¹
Ac-Pro-Tyr-Asp-Ala^P(O—C6H4-4-Cl)2 (Ac-PYD[AlaP]; not fully specified (C-terminus); printed as Ac-Pro-Tyr-Asp-Ala^P(O—C6H4-4-Cl)2; reading uncertain; also: C-terminal Ala as phosphonate analogue (Ala^P)) [Compound 2]	Elastase (Homo sapiens)	Elastase kobs/[I]	n.s
Biotin-PEG3000-Pro-Tyr-Asp-Ala^P(O—C6H4-4-Cl)2 [Compound 13]	Elastase (Homo sapiens)	Elastase kobs/[I]	46.5 M⁻¹ s⁻¹

---

- assay_target: Proteinase 3 (Homo sapiens, UniProt P24158)
- Sequence (P24158 28-248): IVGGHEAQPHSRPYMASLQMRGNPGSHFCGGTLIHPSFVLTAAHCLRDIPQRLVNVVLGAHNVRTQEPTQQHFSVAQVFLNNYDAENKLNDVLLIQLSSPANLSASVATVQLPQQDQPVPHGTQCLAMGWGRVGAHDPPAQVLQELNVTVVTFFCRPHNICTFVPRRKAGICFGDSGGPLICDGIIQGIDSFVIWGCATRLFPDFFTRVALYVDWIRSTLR
- protocol_summary: Protease inhibition assay, second order rate constant kobs/[I] (method of Tian and Tsou)
- Format: biochemical
Where no end group is shown, it is not given here. [ ]: non-standard residue; d: D form. AlaP = not defined here; Ahx = NCCCCCC(=O)O

substance	Proteinase 3 kobs/[I], M⁻¹ s⁻¹
Ac-Ahx-Pro-Tyr-Asp-Ala^P(O—C6H4-4-Cl)2 ({Ac-Ahx}-PYD[AlaP]; not fully specified (C-terminus); printed as Ac-Ahx-Pro-Tyr-Asp-Ala^P(O—C6H4-4-Cl)2; reading uncertain; also: C-terminal Ala as phosphonate analogue (Ala^P)) [Compound 9]	2159
Biotin-Pro-Tyr-Asp-Ala^P(O—C6H4-4-Cl)2 [Compound 4]	4168
Ac-Trp-Pro-Tyr-Asp-Ala^P(O—C6H4-4-Cl)2 (Ac-WPYD[AlaP]; not fully specified (C-terminus); printed as Ac-Trp-Pro-Tyr-Asp-Ala^{P}(O—C₆H₄-4-Cl)₂; reading uncertain; also: C-terminal Ala as phosphonate analogue (Ala^P)) [Compound 11]	15
Ac-Pro-Tyr-Asp-Ala^P(O—C6H4-4-Cl)2 (Ac-PYD[AlaP]; not fully specified (C-terminus); printed as Ac-Pro-Tyr-Asp-Ala^P(O—C6H4-4-Cl)2; reading uncertain; also: C-terminal Ala as phosphonate analogue (Ala^P)) [Compound 2]	154

---

- assay_target: Elastase (Homo sapiens, UniProt P08246)
- Sequence (P08246 30-267): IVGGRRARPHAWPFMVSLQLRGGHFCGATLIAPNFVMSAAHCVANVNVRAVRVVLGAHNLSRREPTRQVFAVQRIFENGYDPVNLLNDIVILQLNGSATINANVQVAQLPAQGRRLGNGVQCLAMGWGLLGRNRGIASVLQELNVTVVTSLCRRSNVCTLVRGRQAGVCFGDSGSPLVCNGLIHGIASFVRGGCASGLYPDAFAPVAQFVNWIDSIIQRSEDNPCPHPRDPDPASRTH
- protocol_summary: Protease inhibition assay, second order rate constant kobs/[I] (method of Tian and Tsou)
- Format: biochemical
- run_parameters: n.s where no significant inhibition
Where no end group is shown, it is not given here. [ ]: non-standard residue; d: D form. The star is where a group is joined. AlaP = not defined here; pentyl = CCCCC*

substance	Elastase kobs/[I]
CH3(CH2)4-Pro-Tyr-Asp-Ala^P(O—C6H4-4-Cl)2 (pentyl-PYD[AlaP]; not fully specified (C-terminus); printed as CH3(CH2)4-Pro-Tyr-Asp-Ala^P(O—C6H4-4-Cl)2; reading uncertain; also: C-terminal Ala as phosphonate analogue (Ala^P)) [Compound 8]	n.s
Ac-Pro-Tyr-Phe-Ala^P(O—C6H4-4-Cl)2 (Ac-PYF[AlaP]; not fully specified (C-terminus); printed as Ac-Pro-Tyr-Phe-Ala^{P}(O—C₆H₄-4-Cl)₂; reading uncertain; also: C-terminal Ala as phosphonate analogue (Ala^P)) [Compound 7]	n.s
